Molecular target: human recombinant PDE4B (Homo sapiens (Human), UniProt Q07343, S133E/S654A/S659A/S661A)
Sequence (Q07343 122-736 S133E/S654A/S659A/S661A): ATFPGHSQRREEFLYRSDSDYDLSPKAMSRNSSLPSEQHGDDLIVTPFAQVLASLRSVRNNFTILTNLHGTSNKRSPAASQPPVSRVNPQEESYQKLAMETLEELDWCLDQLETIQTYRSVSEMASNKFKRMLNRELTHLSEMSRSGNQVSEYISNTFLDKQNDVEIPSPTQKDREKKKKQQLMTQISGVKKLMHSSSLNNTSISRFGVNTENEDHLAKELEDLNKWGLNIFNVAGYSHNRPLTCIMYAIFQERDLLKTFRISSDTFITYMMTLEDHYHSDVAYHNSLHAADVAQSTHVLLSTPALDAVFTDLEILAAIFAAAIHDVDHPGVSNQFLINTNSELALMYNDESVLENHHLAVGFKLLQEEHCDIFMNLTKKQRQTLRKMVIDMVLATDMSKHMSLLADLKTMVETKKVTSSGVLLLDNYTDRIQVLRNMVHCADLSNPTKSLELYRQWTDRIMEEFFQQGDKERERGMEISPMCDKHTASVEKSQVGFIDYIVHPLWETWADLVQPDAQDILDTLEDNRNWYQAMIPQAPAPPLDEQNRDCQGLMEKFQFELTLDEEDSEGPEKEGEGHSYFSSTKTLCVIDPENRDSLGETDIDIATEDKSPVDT
Settings: read-out: Human PDE4B FL
Counter-ions that a name gives are not always drawn.
Recorded IC50 determines the label; the label ranges are Low: < 400 nM; Medium: ≥ 400 nM and < 1000 nM; High: ≥ 1000 nM

{"columns": ["compound", "study-target", "class-label"],
 "data": [
  ["N#Cc1ccc(-n2c(C(=O)NC3CC3)nc3cccnc32)cn1", "human recombinant PDE4B (Homo sapiens (Human), UniProt Q07343, S133E/S654A/S659A/S661A)", "Low"],
  ["O=C(NC1CC1)c1nc2cccnc2n1-c1ccc2ncccc2c1 [Example 80, trifluoroacetate salt]", "human recombinant PDE4B (Homo sapiens (Human), UniProt Q07343, S133E/S654A/S659A/S661A)", "High"]
]}

q: Band for the recorded IC50 of `Cc1ccc(-n2c(C(=O)N3CC(F)C3)nc3cccnc32)cc1F` ?
a: Low

q: Band for the recorded IC50 of `Cc1cc(C)cc(-n2c(C(=O)NC3CC3)nc3cccnc32)c1` ?
a: Low

q: Band for the recorded IC50 of `COc1ccc(-n2c(C(=O)NC3CC3)nc3cccnc32)cc1` ?
a: Medium

q: Band for the recorded IC50 of `N#Cc1cccc(-n2c(C(=O)NC3CC3)nc3cccnc32)c1` ?
a: Low

q: Band for the recorded IC50 of `O=C(NC1CC1)c1nc2cccnc2n1-c1cc(Cl)cc(Cl)c1` ?
a: Low

q: Band for the recorded IC50 of `COc1ccc(-n2c(C(=O)NC3CC3)nc3cccnc32)c(C)c1` ?
a: High

q: Band for the recorded IC50 of `Cc1ccc(F)cc1-n1c(C(=O)NC2CC2)nc2cccnc21` ?
a: High

q: Band for the recorded IC50 of `Cc1cc(Cl)ccc1-n1c(C(=O)N2CC(F)C2)nc2cccnc21` ?
a: High

q: Band for the recorded IC50 of O=C(NC1CC1)c1nc2cccnc2n1-c1cc(F)c(F)c(F)c1 [Example 30, trifluoroacetate salt] ?
a: Low

Numbers sourced from patent US9815832B2.
